Provenance of the data: the RNAGym collection of RNA variant scans (doi:10.7554/elife.90254)

B1: LINE1-full (parent)
chain: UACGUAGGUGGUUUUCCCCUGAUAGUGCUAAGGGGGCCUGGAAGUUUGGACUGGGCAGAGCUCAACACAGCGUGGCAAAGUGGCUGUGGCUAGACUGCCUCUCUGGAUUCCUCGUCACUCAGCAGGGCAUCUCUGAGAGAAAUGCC

variants of: B1; experiment: self-cleavage, relative activity (ratio to wild type); higher = more cleavage; in vitro, sequencing; the parent is a self-cleaving ribozyme
assay readout: self-cleavage
Hey, just send me the number, nothing else.

Some solved entries appear below for comparison.
change	assay readout	recorded result
C98U C146U	self-cleavage	0.32
C28A G54A	self-cleavage	0.57
U20A C71U	self-cleavage	1.22
U104C C146U	self-cleavage	2.3
A22U A57G	self-cleavage	0.84

variant G4A A24U , self-cleavage observed: 1.8

variant U14A U45G , self-cleavage observed: 0.77

variant U45C A65G , self-cleavage observed: 0.04

variant U12C U87C , self-cleavage observed: 0.21

variant G60A U112A , self-cleavage observed: 0.04
